Each entry below carries its reported apparent KD of K4 kissing-loop reporter.
Test system: K4 kissing-loop RNA reporter;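 further: bound reporter read as fluorescence of individual clusters on recovered sequencing chips by microscopy, with normalized cluster intensities fitted with a binding model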
Assay: apparent KD of K4 kissing-loop reporter; higher = weaker reporter binding
Details: Eterna round: R107; input ligand: none
The response must be a number in µM with no trailing unit.

Worked set:
UUCAUCGUGGUUCGCGGGUGGUAUGAAAAGCGAGGACCGGUACGGCCGCCACUCGGUUCCGCUUGUUGAGUGAUGUUCAAUAUUU : 0.251
UGUCAUGGAAACAUGAACGUUGAUGUUCGACGAGGACCGGUACGGCCGCCACUCGAGUAAUAGUCAGUGAUGUUGACUAGUCUAA [KL-SSTryp-A form1] : 0.095
CUCGACACGGGAAGGAGCGGUUGCGUGUGCCAGUGAUGUUGGAUCAGCAGACUGCCCGGUAGCCAGGUAGGUCGCCUGUGCUGAG [Esbeescexe] : 0.162
UUGCAAAAGUCGGCCGCCACUCCGGGCCCUAUAAAUGGGCGCAGUGAUGUUGCGGCUAGGCCUCUGAGGACCGGGACUUUGUAGC [Aenonlebe] : 0.142
CCUAUCUCAUACGAUACCAGUCAAUAUAAACGAGUGAUGUUCGAAAUAAUAUGCCAUCACGACCCUUGGCAGCGUAUGGGAUAGG [Ex Theophylline B K4 6] : 0.141

Recorded apparent KD of K4 kissing-loop reporter of UUGGAUUGAUGAGAGUUGAUUUGGUAGGAAGGAGCGGCCGAAAGGCCAGGUAGGUCGCCUAUUGACAGUGAUGUUGUUAUAUGGU [#16] , please.
0.237

How about UGAUAGGACAGAAGGAGCGGAAGUGAUGUUUCCAAAAGGUAAAGGUGUCAAAAGACACCCUUCCAGGUAGGUCGCUGUCCUAUCU [ArgBX 12 #Palindromic #SwitchBubble #StaticStem] ?
0.113

Entry to check: UUCUACGUGCAAGGAUAUCCAUACGCUGCCCAGCGGGUAGCGAUAUAUGGAGUGAUGUUCCAUGUAGGAGAAGGUGCACUGUCCU [Atrea]
0.457

Continue with UCCUGUUGUCAGCCACGAAAGUGGAUUGAUACCAGAGUCGAAAGACUCCCUUGGCAGCGAGUGAUGUUCGCAGCAGGUAAAUAAA [MatMod 4 - Jieux - Exclusion - Theophylline A]
0.209

Entry UGUACCGAGUCAGGAUAUCAACGACUGACAAAGUCGGUCGAAUAUCCAGUGAUGUUGGAAAAUAACUGAGAAGGGACUUGGUACU [FmnBS 13 #SwitchBubble #StaticStem] please
1.08

Lookup AAGUGAUGUUGUAGUGAUGUUGUGAUGUUGCAGGAUAUAUAGUGAUGUAGAAGGGUAUGUGCAGUUUUAUUUUUUGAGUGUUGAU [ttytmullin]
0.0548

Try this sequence too: GAUUGAGGAAACUCGAUCUUAUAUCCUAGGCAGGAUAUGCGGAAACGCAGAAGGGCCACCUAGCAGUGAUGUUGCAAGCGAAAGC [Ex FMN A 5]
0.379

---

System: MS2 coat protein
Experiment: apparent KD of MS2 coat protein; higher = weaker reporter binding
Details: Eterna round: R107; input ligand: tryptophan 2.4 mM
Entries and their apparent KD of MS2 coat protein
Write the value in nM as a bare number.

# count of solved cases: 2
ACGUAAUGCAGAAGGAGCGUCGACCUCUUACAUGAGGAUCACCCAUGUUGCAUGGUUGUACGACAGGUAGGUCGCUGAAGUACGA [#05 Exclusion - Arginine B] : 65.4
UUAGAUAUGACGGAUACCAGCGUGUUGUAGAACAUGAGGAUCACCCAUGUAGUGAUCGUGCGCCCUUGGCAGCUGGUAUGUUUGG [7.V] : 501

Turning now to a further record.
I have this sequence here, AUGGCGUUGGUGAGGCGGUUUAAUGGCGAUACCAGCGUGGAAACACGCCCUUGGCAGCGCCAAAACAUGAGGAUCACCCAUGUUA [Budejovice] , and I need its recorded apparent KD of MS2 coat protein.
16.4
